test: pKa of NH proton by UV absorbance pH titration; format: physicochemical; conditions: dilute phosphate buffer
measured_parameter: pKa
Keep the answer to the number alone.

Which measured pKa value corresponds to C=CCC1(c2cccc(C3(C(F)(F)F)N=N3)c2)C(=O)NC(=O)N(C)C1=O (racemic) [(±)-14] ?
7.48

meta.source: paper PMC3717557
